EXPERIMENTAL_PROTOCOL: NCI Yeast Anticancer Drug Screen. Data for the bub3 strain (AID 167)
TEST_PARAMETERS: S. cerevisiae bub3 mutant strain, at 50.0 µM, hits give high values
About 79,000 compounds went through this panel and 15% of them were active in at least one assay; those are over-represented in the sample as a whole.
QUANTITY_KIND: growth inhibition (%)
Write down the numeric answer in % and omit the unit.

As a guide, the following entries are already answered.
Cn1c(=O)c2[nH]c(SCCN3CCOCC3)nc2n(C)c1=S: -66.2
COC1OCC(NC(C)=O)C(OC(C)=O)C1OC(C)=O (stereo not drawn): -1.3

Now consider a different compound.
Q) I'd like to know its growth inhibition. The compound in question is `CCOC(=O)NC(Nc1ccc(OC(F)(F)F)cc1)(C(F)(F)F)C(F)(F)F`
A) -19.9

====

EXPERIMENTAL_PROTOCOL: NCI Yeast Anticancer Drug Screen. Data for the rad50 strain (AID 155);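 also: 0% = growth of vehicle-only cultures of the same strain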
TEST_PARAMETERS: S. cerevisiae rad50 strain growth inhibition; at 50.0 µM; hits give high values
Experimental: Growth inhibition of yeast strains with defined genetic alterations is measured as a screen for potential anti-cancer activity. Selected strains with alterations in DNA damage repair or cell cycle control were exposed to compounds and growth inhibition was measured relative to vehicle treated controls. The strain used in this assay is rad50
About 79,000 compounds went through this panel and 15% of them were active in at least one assay; those are over-represented in the sample as a whole.
growth inhibition of 10% or higher: T. Under 10%: F.

Study these solved cases before continuing.
Nc1cccc(Oc2ccc([N+](=O)[O-])cc2)c1: T
COc1cccc(Nc2nc(N)nc(N)c2N)c1: F
CCOC(CCl)(NC(C)=O)C(=O)OC (stereo unspecified): F
Nc1ncnc2scnc12: T
O=c1c2cccnc2ncn1CCCN1CCCCC1: F
CCOc1ccccc1Br: F

Q) Determine whether this compound has growth inhibition no lower than 10%: `CCOC(=O)/C(=C/c1cccc2ccccc12)P(=O)(OCC)OCC`
A) T

Q) Item: CC(NC(=O)N=Nc1ccccc1)C(=O)O (stereo unspecified)
A) F

Q) Item: `O=C(O)CCCCCN1C(=O)c2cccc([N+](=O)[O-])c2C1=O`
A) T

Q) Item: `O=[N+]([O-])c1ccc(OS(=O)(=O)c2ccccc2)cc1`
A) F

Q) Item: O=C(O)CC1CC(=O)OC1(c1ccccc1)c1ccccc1 (stereo unspecified)
A) T

Q) Item: `O=c1[nH]c(=S)[nH]c2c1CCC2`
A) F

====

EXPERIMENTAL_PROTOCOL: NCI Yeast Anticancer Drug Screen. Data for the cln2 rad14 strain (AID 165);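 also: 0% = growth equal to vehicle treated cultures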
TEST_PARAMETERS: S. cerevisiae cln2 rad14 strain, at 50.0 µM, hits give high values
This is part of a sample that, as a whole, favours compounds with a hit. Of some 79,000 tested, about 15% had one in any assay. Calls of active or inactive are those of the source. Rule as the data show it: active = growth inhibition above about 70%; inactive = the rest.
QUANTITY_KIND: growth inhibition

As a guide, the following entries are already answered.
CCOC(=O)/C=C1\CONC(c2ccc(OC)cc2)=N1: -19.2% (inactive)
CN(C)c1ccc(/C=C/C(=O)/C=C/c2ccc(N(C)C)cc2)cc1: 7.6% (inactive)
COc1cccc(N=Cc2ccc(C=Nc3cccc(OC)c3)cc2)c1: -9.35% (inactive)
CCOC(=O)NC(Nc1ccc(OC(F)(F)F)cc1)(C(F)(F)F)C(F)(F)F: -1.25% (inactive)
O=C(CCl)N1C(=O)NC(c2ccc(Cl)cc2)(c2ccc(Cl)cc2)C1=O: -4.8% (inactive)
O=C1OCC(O)=C1C(c1ccc(Cl)cc1)c1cc2c(cc1O)OCO2 (stereo not given): -16.3% (inactive)

Q) I'd like to know its growth inhibition. The compound in question is `CCN(CC)CCSc1cc(C)c2ccc(N)nc2n1`
A) 15.1% (inactive)

Q) Item: `CCCCCCCCCCC(CCCCCCCCCC)C1CCCC1`
A) -14.6% (inactive)

Q) Item: `COc1ccc(C(=O)/C=C/c2ccc(OCCSCCCCCCCCCCSCCOc3ccc(/C=C/C(=O)c4ccc(OC)c(OC)c4)cc3)cc2)cc1OC`
A) -6.35% (inactive)

Q) Item: `O=c1[nH]c2cc(Cl)ccc2nc1/C=C(\O)c1ccco1`
A) 10.3% (inactive)

====

We begin with a simple list: items and their reported growth inhibition.
EXPERIMENTAL_PROTOCOL: NCI Yeast Anticancer Drug Screen. Data for the mec2-1 strain (AID 157)
TEST_PARAMETERS: S. cerevisiae mec2-1 strain, at 50.0 µM, hits give high values
About 79,000 compounds went through this panel and 15% of them were active in at least one assay; those are over-represented in the sample as a whole.
Write down the numeric answer in % and omit the unit.

As a guide, the following entries are already answered.
O=C1CCc2nc(=O)c3c4ccccc4ccc3n21: 1.55
OCC1NCCC(O)C1OC1OC(CO)C(O)C(O)C1O (stereo unspecified): -22.1
CN(C)S(=O)(=O)C=C(c1ccccc1)c1ccccc1: 4.1

Q) I'd like to know its growth inhibition. The compound in question is CN1CCN(CCNNCCN2CCCC(O)C2)CC1 (stereo unspecified)
A) -1.65

Q) Item: `CC(=O)Nc1ncc2ccccc2c1-c1ccc(NC(=O)CCCl)cc1`
A) 19.4

Q) Item: `O=COCc1ccc2c(c1)OCO2`
A) 36.9

Q) Item: CC1OCC2OC(C)OC(C(C3C(=O)CC(C)(C)CC3=O)C3C(=O)CC(C)(C)CC3=O)C2O1 (stereo unspecified)
A) 6.3

Q) Item: COC1c2ccccc2C(C)(C)c2nc3ccccc3cc21 (stereo unspecified)
A) -10

Q) Item: `CCOC(=O)C[P+](c1ccc(OC)cc1)(c1ccc(OC)cc1)c1ccc(OC)cc1`
A) 95.8

Q) Item: `COc1cccc(/C=C2\C(=O)N(C(=O)Cc3ccccc3)N=C2C)c1`
A) -30.2

Q) Item: `COc1ccc(C[n+]2ccccc2C#N)cc1OC`
A) -13.8

====

EXPERIMENTAL_PROTOCOL: NCI Yeast Anticancer Drug Screen. Data for the mec2-1 strain (AID 157)
TEST_PARAMETERS: S. cerevisiae mec2-1 strain, at 50.0 µM, hits give high values
Procedure: Growth inhibition of yeast strains with defined genetic alterations is measured as a screen for potential anti-cancer activity. Selected strains with alterations in DNA damage repair or cell cycle control were exposed to compounds and growth inhibition was measured relative to vehicle treated controls. The strain used in this assay is mec2-1
About 79,000 compounds went through this panel and 15% of them were active in at least one assay; those are over-represented in the sample as a whole.
We begin with a simple list: items and their reported growth inhibition.
Write down the numeric answer in % and omit the unit.

CC1=C(C(=O)CC(=O)C(=O)NC2C3CC4CC(C3)CC2C4)Sc2ccccc2N1 (centres undefined): -0.15
C=CCNC(=O)CN(CC(=O)OC)C1CCCCC1N(CC(=O)OC)CC(=O)OC (centres undefined): -6.6
CCOC1OC(C(O)CO)C(O)C1O (centres undefined): -18.8

Q) I'd like to know its growth inhibition. The molecule in question is CCOC(=O)C(=O)C(C(=O)c1ccccn1)c1nc2n(c1O)C(=N)N=N2 (centres undefined)
A) 4.4

====

We begin with a simple list: items and their reported growth inhibition.
EXPERIMENTAL_PROTOCOL: NCI Yeast Anticancer Drug Screen. Data for the mec2-1 strain (AID 157)
TEST_PARAMETERS: S. cerevisiae mec2-1 strain, at 50.0 µM, hits give high values
Compounds without any hit were thinned out: in the full panel of roughly 79,000, 15% have a hit.
Write down the numeric answer in % and omit the unit.

As a guide, the following entries are already answered.
CCOC(=O)C(C)N1CCCCCC1 (stereo not given): -30.4
C=CCC(OC(C)=O)c1cccc(OC)c1OC (stereo not given): 7.2
NCc1ccc(S(=O)(=O)Nc2cc(Br)cc(Br)c2)cc1: 14.8
CC(C)CCCC(C)C1CCC2C3CC=C4CC(P(=O)(c5ccccc5)c5ccccc5)CCC4(C)C3CCC12C (stereo not given): -9.9

Q) I'd like to know its growth inhibition. The compound in question is CCOc1ccc2nc(NC(=O)C(=O)C(C(=O)c3ccccc3F)C3OC(=O)c4ccccc43)sc2c1 (stereo not given)
A) 9

====

We begin with a simple list: items and their reported growth inhibition.
EXPERIMENTAL_PROTOCOL: NCI Yeast Anticancer Drug Screen. Data for the sgs1 mgt1 strain (AID 161);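 also: 0% = growth of cultures given vehicle only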
TEST_PARAMETERS: S. cerevisiae sgs1 mgt1 strain, at 50.0 µM, hits give high values
Compounds without any hit were thinned out: in the full panel of roughly 79,000, 15% have a hit.
Write down the numeric answer in % and omit the unit.

As a guide, the following entries are already answered.
CS(=O)(=O)N1COC(=O)[C@@H]1c1ccccc1: 7
CC1OC(n2ccc(=O)[nH]c2=O)C=C(OC(=O)c2ccccc2)C1=O (stereo not given): -11.4

Q) I'd like to know its growth inhibition. The compound in question is `C=CCOCn1ccc(N)nc1=O`
A) 1.8

Q) Item: CC12CCC=CC1=CC(=O)CC2 (stereo not given)
A) 1.05

Q) Item: CCCCCCCCCCCCC/C=C/CC(CC(=O)Nc1ccc(-n2c(=O)cc(C)n2C)cc1)C(=O)O (stereo not given)
A) 13.1

Q) Item: COc1ccc(C(CN)c2ccc(N)cc2)cc1 (stereo not given)
A) 1.6

Q) Item: `CCCCCC(=O)Nc1cc(N)cc(C(=O)O)c1`
A) 9.5
